Assignment: determine reported abundance fitness for the given variants.
B1: Chromodomain-helicase-DNA-binding protein 3, residues 374 to 426; numbered along this chain, Q12873 (parent)
chain: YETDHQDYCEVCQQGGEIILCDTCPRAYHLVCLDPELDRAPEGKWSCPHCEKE

Variants of: B1
PROCEDURE DETAILS: abundance fitness (aPCA) (normalised: wild type 0, dead -1); higher = more abundant; growth selection in yeast, the domain comes from the species named
EXPERIMENTAL PARAMETERS: Homo sapiens
Reply with the value as a number alone.

Consider the variant `R26A` and give its measured abundance fitness.
-0.202

What measured abundance fitness goes with `A27K` ?
-0.407

Requested read-out: abundance fitness. Entry: `I18G`
-0.087

Using the record for `L33K` , report its abundance fitness.
-0.663

Given the variant `C32W` , what is its reported abundance fitness?
-0.502

Which abundance fitness value belongs to `T23H` ?
-0.146

abundance fitness lookup needed for `G16W` , thanks.
0.025

Entry `Q6E` has what abundance fitness?
-0.227

# lookup: abundance fitness of `C24F`
-1.05

Which value of abundance fitness has been reported for `Q14F` in the records?
-0.26

Data request, read-out abundance fitness, for `D22Q`
0.557

What measured abundance fitness goes with `R39D` ?
-0.138

What value of abundance fitness has been recorded for this entry: `V11F`
0.138

Name the reported abundance fitness value associated with the variant `C24E`
-1.16

Can you look up the measured abundance fitness of `Y8H` for me?
0.461

So what does the record say about abundance fitness for `H5W` ?
-0.197

Quick one: abundance fitness for `C21L` ?
-0.74

# abundance fitness lookup, item `G16K`
0.346
